Tested on: Fusobacterium varium
Test: Antimicrobial activity in Fusobacterium varium by CLSI agar dilution method
Format: functional
MEASURED ATTRIBUTE: MIC90 (µg/mL)

1. C[C@@H](O)[C@H]1C(=O)N2C(C(=O)O)=C(S[C@H]3CC[S@@+]([O-])C3)S[C@H]12    0.5
2. Cc1ncc([N+](=O)[O-])n1CCO    0.5
3. C[C@@H](O)[C@H]1C(=O)N2C(C(=O)O)=C(SCCNC=N)C[C@H]12 [IMIPENEM ANHYDROUS]    1
4. CCC[C@@H]1C[C@@H](C(=O)N[C@@H]([C@H]2O[C@H](SC)[C@H](O)[C@@H](O)[C@H]2O)[C@H](C)Cl)N(C)C1    32
